Assay: Clearance in Sprague-Dawley rat at 2 mg/kg, iv
Assay type: ADME, organism-based
Design: dose 2 mg/kg, route intravenous
Conditions: in vivo
value_kind: clearance (mL/min/kg)
The reply should contain only the number, in mL/min/kg.

Example entries begin here.
>>> df
                                   compound  unit_annotation  recorded_measurement
0  Cc1ccc(COc2ccc3c(c2)c(SC(C)(C)C)c(CC(C)(C)C(=O)[O-])n3Cc2ccc(-c3ccc(C)cn3)cc2)nc1.[Na+]        mL/min/kg                     3
1  Cc1ccc(COc2ccc3c(c2)c(SC(C)(C)C)c(CC(C)(C)C(=O)[O-])n3Cc2ccc(-c3ccc(F)cn3)cc2)nc1.[Na+]        mL/min/kg                     4
2  COc1cnc(-c2ccc(Cn3c(CC(C)(C)C(=O)[O-])c(SC(C)(C)C)c4cc(OCc5ccc(C)cn5)ccc43)cc2)nc1.[Na+]        mL/min/kg                   3.1

// next item, clearance requested
State the recorded clearance for this entry: CCOc1ccc(-c2ccc(Cn3c(CC(C)(C)C(=O)[O-])c(SC(C)(C)C)c4cc(OCc5ccc(C)cn5)ccc43)cc2)cn1.[Na+] [FIBOFLAPON SODIUM] 5.2

====

Target: Arachidonate 5-lipoxygenase-activating protein (Homo sapiens, UniProt P20292)
Test: Inhibition of FLAP in human whole blood assessed as inhibition of calcium ionophore A23187-induced LTB4 production preincubated for 5 hrs by ELISA
value_kind: pIC50
Just the number, please; pIC50 means minus log10 of the concentration in mol/L.

Example entries begin here.
>>> df
                               input_smiles  recorded_measurement
0  COc1ccc(-c2ccc(Cn3c(CC(C)(C)C(=O)O)c(SC(C)(C)C)c4cc(OCc5cnc6ccccc6n5)ccc43)cc2)cn1                  6.34
1  COc1ccc(COc2ccc3c(c2)c(SC(C)(C)C)c(CC(C)(C)C(=O)O)n3Cc2ccc(-c3ccc(OC)nc3)cc2)nc1                  6.19
2  COc1ccc(-c2ccc(Cn3c(CC(C)(C)C(=O)O)c(SC(C)(C)C)c4cc(OCc5cnc(C)cn5)ccc43)cc2)cn1                  6.55

// next item, pIC50 requested
State the recorded pIC50 for this entry: `COc1ccc(-c2ccc(Cn3c(CC(C)(C)C(=O)O)c(SC(C)(C)C)c4cc(OCc5ccccn5)ccc43)cc2)cn1` 6.83

====

Experiment: Terminal half life in Sprague-Dawley rat at 2 mg/kg, iv
Type: ADME, organism-based
Set-up: dose 2 mg/kg, route intravenous
Settings: in vivo, read-out: beta t1/2 (converted)
Known half-life of a selection of molecules
Be sure to follow the number with its unit.

>>> df
                                   molecule  value_kind  recorded_measurement
0  Cc1ccc(COc2ccc3c(c2)c(SC(C)(C)C)c(CC(C)(C)C(=O)[O-])n3Cc2ccc(-c3ccc(F)cn3)cc2)nc1.[Na+]   half-life                 1.9 h

State the recorded half-life for this entry: `Cc1ccc(COc2ccc3c(c2)c(SC(C)(C)C)c(CC(C)(C)C(=O)[O-])n3Cc2ccc(-c3ccc(C)cn3)cc2)nc1.[Na+]` 1 h

State the recorded half-life for this entry: CCOc1ccc(-c2ccc(Cn3c(CC(C)(C)C(=O)[O-])c(SC(C)(C)C)c4cc(OCc5ccc(C)cn5)ccc43)cc2)cn1.[Na+] [FIBOFLAPON SODIUM] 2 h

State the recorded half-life for this entry: `COc1cnc(-c2ccc(Cn3c(CC(C)(C)C(=O)[O-])c(SC(C)(C)C)c4cc(OCc5ccc(C)cn5)ccc43)cc2)nc1.[Na+]` 1.7 h

====

Known bioavailability of a selection of molecules
Experiment: Oral bioavailability in Sprague-Dawley rat at 10 mg/kg
Type: ADME, organism-based
Conditions: in vivo
The reply should contain only the number, in %.

In [3]: df
Out[3]:
                                   molecule  unit_annotation  recorded_measurement
0  CCOc1ccc(-c2ccc(Cn3c(CC(C)(C)C(=O)[O-])c(SC(C)(C)C)c4cc(OCc5ccc(C)cn5)ccc43)cc2)cn1.[Na+] [FIBOFLAPON SODIUM]                %                    76
1  Cc1ccc(COc2ccc3c(c2)c(SC(C)(C)C)c(CC(C)(C)C(=O)[O-])n3Cc2ccc(-c3ccc(C)cn3)cc2)nc1.[Na+]                %                    40
2  Cc1ccc(COc2ccc3c(c2)c(SC(C)(C)C)c(CC(C)(C)C(=O)[O-])n3Cc2ccc(-c3ccc(F)cn3)cc2)nc1.[Na+]                %                   100

// next item, bioavailability requested
State the recorded bioavailability for this entry: `COc1cnc(-c2ccc(Cn3c(CC(C)(C)C(=O)[O-])c(SC(C)(C)C)c4cc(OCc5ccc(C)cn5)ccc43)cc2)nc1.[Na+]` 100

====

Assay: Oral bioavailability in Beagle dog at 5 mg/kg
Type: ADME, organism-based, Canis lupus familiaris
Settings: in vivo
value_kind: bioavailability (%)
The reply should contain only the number, in %.

State the recorded bioavailability for this entry: `CCOc1ccc(-c2ccc(Cn3c(CC(C)(C)C(=O)O)c(SC(C)(C)C)c4cc(OCc5ccc(C)cn5)ccc43)cc2)cn1` 51

====

Known pIC50 of a selection of compounds
Target: Arachidonate 5-lipoxygenase-activating protein (Homo sapiens, UniProt P20292)
Sequence (P20292 whole entry): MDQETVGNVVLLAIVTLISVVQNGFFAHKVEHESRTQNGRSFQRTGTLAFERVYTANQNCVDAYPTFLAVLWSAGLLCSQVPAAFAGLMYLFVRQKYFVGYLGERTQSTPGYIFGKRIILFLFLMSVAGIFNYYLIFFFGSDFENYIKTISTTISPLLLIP
Assay: Displacement of [3H]-3-[5-(pyrid-2-ylmethoxy)-3-tert-butylthio-1-benzylindol-2-yl]-2,2-dimethylpropionic acid from FLAP in human polymorphonuclear cell membranes after 1 hr by scintillation counting
Just the number, please; pIC50 means minus log10 of the concentration in mol/L.

Example entries begin here.
>>> print(df.to_string())
                               input_smiles  value_kind  recorded_measurement
0  COc1ccc(-c2ccc(Cn3c(CC(C)(C)C(=O)O)c(SC(C)(C)C)c4cc(OCc5ccc(C)cn5)ccc43)cc2)cn1       pIC50                  8.77
1  COc1ccc(-c2ccc(Cn3c(CC(C)(C)C(=O)O)c(SC(C)(C)C)c4cc(OCc5cc(C)nn5C)ccc43)cc2)cn1       pIC50                  5.61
2  Cc1ccc(COc2ccc3c(c2)c(SC(C)(C)C)c(CC(C)(C)C(=O)O)n3Cc2ccc(-c3cccnc3)cc2)nc1       pIC50                  8.59

State the recorded pIC50 for this entry: `COc1ccc(-c2ccc(Cn3c(CC(C)(C)C(=O)O)c(SC(C)(C)C)c4cc(OCc5ccc6ccccc6n5)ccc43)cc2)cn1` 8.28

State the recorded pIC50 for this entry: `CCOc1nc(-c2ccc(Cn3c(CC(C)(C)C(=O)O)c(SC(C)(C)C)c4cc(OCc5ccc(C)cn5)ccc43)cc2)cs1` 8.85

====

Experiment: Plasma protein binding in rat
Format: ADME, cell-free
Settings: read-out: PPB (converted)
value_kind: fraction unbound
Lab note: jot the number down without any unit.

State the recorded fraction unbound for this entry: `CCOc1ccc(-c2ccc(Cn3c(CC(C)(C)C(=O)O)c(SC(C)(C)C)c4cc(OCc5ccc(C)cn5)ccc43)cc2)cn1` 0.002

====

Target: Arachidonate 5-lipoxygenase-activating protein (Homo sapiens)
Experiment: Inhibition of FLAP in human peripheral leukocytes assessed as inhibition of calcium ionophore A23187-induced LTB4 production after 10 mins by ELISA
Type: cell-based
pIC50: −log10 of the molar value.
Binary call on pIC50: yes (1) from 9 upward, no (0) beneath that.

                               input_smiles                                    system  category_label
0  COc1ccc(-c2ccc(Cn3c(CC(C)(C)C(=O)O)c(SC(C)(C)C)c4cc(OCc5ccc(C(N)=O)cn5)ccc43)cc2)cn1  Arachidonate 5-lipoxygenase-activating protein (Homo sapiens)          no (0)
1  Cc1ccc(COc2ccc3c(c2)c(SC(C)(C)C)c(CC(C)(C)C(=O)O)n3Cc2ccc(-c3ccc(C(F)(F)F)cn3)cc2)nc1  Arachidonate 5-lipoxygenase-activating protein (Homo sapiens)         yes (1)
2  COc1ccc(-c2ccc(Cn3c(CC(C)(C)C(=O)O)c(SC(C)(C)C)c4cc(OCc5cc(C)on5)ccc43)cc2)cn1  Arachidonate 5-lipoxygenase-activating protein (Homo sapiens)          no (0)

Is pIC50 for `Cc1ccc(COc2ccc3c(c2)c(SC(C)(C)C)c(CC(C)(C)C(=O)O)n3Cc2ccc(-c3cccc(C(F)(F)F)n3)cc2)nc1` at or above 9? yes (1)

Is pIC50 for `Cc1ccc(COc2ccc3c(c2)c(SC(C)(C)C)c(CC(C)(C)C(=O)O)n3Cc2ccc(-c3cc(C(F)(F)F)ccn3)cc2)nc1` at or above 9? yes (1)

Is pIC50 for `Cc1ccc(COc2ccc3c(c2)c(SC(C)(C)C)c(CC(C)(C)C(=O)O)n3Cc2ccc(-c3ccc(=O)[nH]c3)cc2)nc1` at or above 9? no (0)

Is pIC50 for `COc1ccc(-c2ccc(Cn3c(CC(C)(C)C(=O)O)c(SC(C)(C)C)c4cc(OCc5cccc(C)n5)ccc43)cc2)cn1` at or above 9? yes (1)

meta.source: ChEMBL document CHEMBL1921749
